src = the RNAGym collection of RNA variant scans (doi:10.7554/elife.80360)

B1: Hairpin Ribozyme (parent)
chain: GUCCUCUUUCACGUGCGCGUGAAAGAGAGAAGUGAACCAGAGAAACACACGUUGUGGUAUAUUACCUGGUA

# Variants of: B1
# procedure.text: self-cleavage, relative activity (ratio to wild type); higher = more cleavage; co-transcriptional
measure: self-cleavage
The response must contain the number and no unit.

Before answering, review these 5 worked examples.
>  <var>
C48U A49C

>  <measure>
self-cleavage

>  <recorded.number>
0.225

$$$$
>  <var>
G32C U62C

>  <measure>
self-cleavage

>  <recorded.number>
0.2

$$$$
>  <var>
G57C G69C

>  <measure>
self-cleavage

>  <recorded.number>
0.142

$$$$
>  <var>
G19U U52A

>  <measure>
self-cleavage

>  <recorded.number>
0.881

$$$$
>  <var>
G42C A44G

>  <measure>
self-cleavage

>  <recorded.number>
0.137

$$$$

Field request: self-cleavage | item: U33C U70G
0.147

Follow-up item: G19C A31C
0.143

Follow-up item: U14A A71C
1.34

Follow-up item: A36C A47U
0.29

Follow-up item: G21U A71G
0.805

Follow-up item: G27C G68U
0.147

Follow-up item: U53A A61G
0.0972

Follow-up item: C18G G57A
0.118

Follow-up item: C10G G54A
0.375

Follow-up item: G1U G21C
0.112

Follow-up item: G15C C37G
0.298

Follow-up item: A28C G42A
0.29

Follow-up item: A22G U58C
0.954
